Hi there, I'd appreciate the recorded Cross-Reactivity Screen (mAb at 10 ug/mL) for every entry that follows.
experimental-target: T1, cynomolgus monkey full-length Tie2 on HEK293 cells (cynomolgus monkey, UniProt G7PS68 23-1124)
T1 construct: whole, on cells; also called HEK293/Cyno Tie2; HEK/cyno Tie2
protocol-text: flow cytometry on HEK293/Cyno Tie2 cells, mAb at 10 ug/mL
One number for each entry.

Sample records with Cross-Reactivity Screen (mAb at 10 ug/mL):
- binder: "human anti-Tie2 antibody #1 (antibody, V domains shown, also called Ab #1; Antibody Clone # 1) VH: DVQLVESGGGVVRPGESLRLSCAASGFTFSSYAMSWVRQAPGEGLEWVARISDYTIYYADSVKGRFTISRDNSKNTLYLQMNSLRAEDTAVYYCAKSGPKSGKYWNNFFDSWGLGTLVTVSS VL: EIVLTQSPGTLSVSPGERATLTCRASQSVKTDLAWYQQKPGQAPRLLIYGATTRATGIPARFSGSGSGTEFTLTITNLQSEDFAVYYCQQYYVWPPLTFGGGTKVEIK"
  obs-value: 74.1
- binder: "anti-Tie2 antibody #5 (antibody, V domains shown, also called Ab #5; Antibody Clone # 5) VH: DVQLVESGGGVVRPGESLRLSCTASGFSFDVYAMTWVRQAPGKGLEWLTLISGTGRMTYYADSVKGRFTVSRDNSKKTLYLQMNSLRAEDTAVYYCAKDPFGHGFFDYWGLGTLVTVSS VL: EIVLTQSPGTLSLSPGERATLSCRASQTVGSKLAWYQQKPGQAPRLLIYDASTRATGIPDRFSGSGSGTDFTLTISSLQSEDFAVYYCQQYNNWPPLTFGGGTKVEIK"
  obs-value: 73.1
- binder: "anti-Tie2 antibody #6 (antibody, V domains shown, also called Ab #6; Antibody Clone # 6) VH: DVQLVESGGGVVRPGESLRLSCTASGFSFDVYAMTWVRQAPGKGLEWLTLISGTGRMTYYADSVKGRFTVSRDNSKKTLYLQMNSLRAEDTAVYYCAKDPFGHGFFDYWGLGTLVTVSS VL: EIVLTQSPGTLTLSPGETATLTCRASQSVNRNLAWYQEKPDQAPRLLIYDARTRATGVPDRFSGSGSGTDFTLTINSLQSEDFAVYVCQQYYDWPPFTFGGGTKVEIK"
  obs-value: 78.8

# return Cross-Reactivity Screen (mAb at 10 ug/mL) for each item in the list
1. anti-Tie2 antibody #31 (antibody, V domains shown, also called Ab #31; Antibody Clone # 31) VH: DVQLVESGGGVVRPGESPRLSCAASGFSFINFAMTWVRQAPGEGPEWVSLISDDGRGNRPYYADSVKGRFTISRDNSKNILYLQMNSLRVEDTATYYCAKVSWDVFFDYWGLGTLVTVSS VL: EIVLTQSPGTVSLSPGERVTLSCRASQPIDVYLAWYQQKPGQAPRLLIYGANRRAIDIPDRFSGSGSGTEFTLTINSLQNEDFAVYFCQQYMTWPPVTFGGGTKVEIK
2. human anti-Tie2 antibody #2 (antibody, V domains shown, also called Ab #2; Antibody Clone # 2) VH: DVQLVESGGGVVRPGESLRLSCAASGFSFINFAMTWVRQAPGEGPEWVSLISDDGRGNRPYYADSVKGRFTISRDNSKNILYLQMNSLRVEDTATYYCAKVSWDVFFDYWGLGTVVTVSS VL: EIVLTQSPGTVSLSPGERVTLSCRASQPIDVYLAWYQQKPGQAPRLLIYGANRRAIDIPDRFSGSGSGTEFTLTINSLQNEDFAVYFCQQYMTWPPVTFGGGTKVEIK
3. human anti-Tie2 antibody #3 (antibody, V domains shown, also called Ab #3; Antibody Clone # 3) VH: DVQLVESGGGVVRPGESLRLSCTASGFTFDSYGMSWVRQAPGKGLEWVSSINVGDNTYYADSVRGRFIISRDSSRNTLYLQMNSLTAEDTAVYYCANWNSFFDYWGLGTLVTVSS VL: EIVLTQSPGTLSLSPGEIATLSCRASQNVRSDLAWYQQKPGQAPRLLIYDASNRATGIPDRFSGSGSGTDFTLTISSLQSEDFAVYYCQQYSNWPPLTFGGGTKVEIK

[47.5, 53.2, 40.2]
